target: SARS-COV-2 polymerase NSP12 (Severe acute respiratory syndrome coronavirus 2)
test protocol: SARS-CoV-2 RNA polymerization assay with RdRp catalytic domain, PAGE gel (FIG. 2)
Assay type: biochemical
experimental setup: rATP split 50:50 with compound, 37° C. for 2 h
observable: in vitro replication of the SARS-CoV-2 RNA via the SARS-CoV-2 RNA polymerase

{"chemical string": "Nc1ncnc2c1ncn2-c1nc(O)c2ccccc2n1", "result": "inhibits"}
{"chemical string": "Nc1ncnc2c1ncn2-c1nc(O)c2ccc(F)cc2n1", "result": "inhibits"}
{"chemical string": "Nc1ncnc2c1ncn2-c1nc(OP(=O)(O)O)c2ccccc2n1", "result": "inhibits"}
